system: rabbit neutrophil; assay: Influence on rabbit neutrophil H2O2 production (H2DCFDA fluorescence); assay type: cell-based; conditions: 100 μM, 2 hours at 37° C., rabbit neutrophils

{"molecule": "CCCCCCCCCCCCC(CCCCCCCCCCCC)C(=O)NCC1O[C@H](O[C@H]2OC(CNC(=O)C(CCCCCCCCCCCC)CCCCCCCCCCCC)[C@@H](O)C(O)C2O)C(O)C(O)[C@@H]1O (stereo partly drawn)", "units of measure": "nmol/10^5 Cells", "H2O2 production": 0.20}
{"molecule": "CCCCCCCCCCCC(CCCCCCCCCCC)C(=O)NCC1O[C@H](O[C@H]2OC(CNC(=O)C(CCCCCCCCCCC)CCCCCCCCCCC)[C@@H](O)C(O)C2O)C(O)C(O)[C@@H]1O (stereo partly drawn)", "units of measure": "nmol/10^5 Cells", "H2O2 production": 0.26}
{"molecule": "CCCCCCCCCCCCCCC(CCCCCCCCCCCCCC)C(=O)NCC1O[C@H](O[C@H]2OC(CNC(=O)C(CCCCCCCCCCCCCC)CCCCCCCCCCCCCC)[C@@H](O)C(O)C2O)C(O)C(O)[C@@H]1O (stereo partly drawn)", "units of measure": "nmol/10^5 Cells", "H2O2 production": 0.29}

###

System: intraperitoneal macrophage cells of a mouse
Assay: Measurement of macrophage activity: nitrite ion concentration (NO release, Griess reagent)
Assay type: cell-based
Conditions: test compound 50 μM, cultured 48 hours, mouse peritoneal macrophages, mean ± S.E.
Method: Macrophage activation indicates the condition wherein the adhesion to the tissue and the motility of the macrophages are improved, so that bacteria entering from outside or denatured self-components are phagocytized. Macrophage activity can be measured using the release of cytokine or active oxygen as an index. In Experimental Example 1 below, the macrophage activation ability was measured using the nitrite ion concentration as an index. […]
Nitrite Ion Concentration Actual Value strictly less than 500 nM = Condition met. Otherwise Condition not met.

{"compound": "CCCCCCCCCCCC(CCCCCCCCCCC)C(=O)NCC1O[C@H](O[C@H]2OC(CNC(=O)C(CCCCCCCCCCC)CCCCCCCCCCC)[C@@H](O)C(O)C2O)C(O)C(O)[C@@H]1O (some centres unmarked)", "class assignment": "Condition not met"}
{"compound": "CCCCCCCCCCCCCCC(CCCCCCCCCCCCCC)C(=O)NCC1O[C@H](O[C@H]2OC(CNC(=O)C(CCCCCCCCCCCCCC)CCCCCCCCCCCCCC)[C@@H](O)C(O)C2O)C(O)C(O)[C@@H]1O (some centres unmarked)", "class assignment": "Condition not met"}
{"compound": "CCCCCCCCCCCCCC(CCCCCCCCCCCCC)C(=O)NCC1O[C@H](O[C@H]2OC(CNC(=O)C(CCCCCCCCCCCCC)CCCCCCCCCCCCC)[C@@H](O)C(O)C2O)C(O)C(O)[C@@H]1O (some centres unmarked)", "class assignment": "Condition not met"}
{"compound": "CCCCCCCCCCCCCCCCC(CCCCCCCCCCCCCCCC)C(=O)NCC1O[C@H](O[C@H]2OC(CNC(=O)C(CCCCCCCCCCCCCCCC)CCCCCCCCCCCCCCCC)[C@@H](O)C(O)C2O)C(O)C(O)[C@@H]1O (some centres unmarked)", "class assignment": "Condition met"}
{"compound": "CCCCCCCCCCCCC(CCCCCCCCCCCC)C(=O)NCC1O[C@H](O[C@H]2OC(CNC(=O)C(CCCCCCCCCCCC)CCCCCCCCCCCC)[C@@H](O)C(O)C2O)C(O)C(O)[C@@H]1O (some centres unmarked)", "class assignment": "Condition not met"}
{"compound": "CCCCCCCCCCC(CCCCCCCCCC)C(=O)NCC1O[C@H](O[C@H]2OC(CNC(=O)C(CCCCCCCCCC)CCCCCCCCCC)[C@@H](O)C(O)C2O)C(O)C(O)[C@@H]1O (some centres unmarked)", "class assignment": "Condition met"}
{"compound": "CCCCCCCCCCCCCCCC(CCCCCCCCCCCCCCC)C(=O)NCC1O[C@H](O[C@H]2OC(CNC(=O)C(CCCCCCCCCCCCCCC)CCCCCCCCCCCCCCC)[C@@H](O)C(O)C2O)C(O)C(O)[C@@H]1O (some centres unmarked)", "class assignment": "Condition not met"}
